Give measured pIC50 for each item. Keep answers brief.
biological target: Adenosine receptor A2a (Homo sapiens, UniProt P29274); test: Antagonist activity at human adenosine A2A receptor assessed as inhibition of CGS-21680-stimulated cAMP production
Sequence (P29274 whole entry): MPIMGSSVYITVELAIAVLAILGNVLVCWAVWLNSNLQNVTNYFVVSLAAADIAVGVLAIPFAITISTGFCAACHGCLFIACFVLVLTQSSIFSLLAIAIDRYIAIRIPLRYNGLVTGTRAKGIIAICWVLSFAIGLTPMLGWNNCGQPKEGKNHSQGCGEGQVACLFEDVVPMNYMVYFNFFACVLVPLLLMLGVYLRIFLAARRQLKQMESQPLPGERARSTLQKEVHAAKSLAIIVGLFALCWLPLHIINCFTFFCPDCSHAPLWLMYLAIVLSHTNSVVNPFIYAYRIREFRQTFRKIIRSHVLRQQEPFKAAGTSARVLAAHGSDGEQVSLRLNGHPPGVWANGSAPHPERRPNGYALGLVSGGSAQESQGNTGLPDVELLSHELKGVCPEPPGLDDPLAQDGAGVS
Interpret pIC50 as the negative base-10 log of the concentration measured in mol/L.

Qu. Record request: pIC50 value, item COC[C@H]1CCCN1c1cc(NC(C)=O)nc(-n2nc(C)cc2C)n1
Ans. 7.07

Qu. Using the record for COc1cncc(-c2cc(NC(C)=O)nc(-n3nc(C)cc3C)n2)c1 , report its pIC50.
Ans. 7.07

Qu. Suppose we examine the compound CC(=O)Nc1cc(N2CCCC2=O)nc(-n2nc(C)cc2C)n1 ; what pIC50 value has been reported?
Ans. 6.00

The reported measurements were obtained from ChEMBL document CHEMBL1143380.
